Reported Potency values for a set of molecules
PROTOCOL_DESCRIPTION: Quantitative High-Throughput drug screen in 47 multiple myeloma cell lines against the NCATS MIPE library collection: ARP1_JJKsccF8 cell viability assay (AID 1918928; also: potency is read from the fitted curve at half-maximal effect; nearly all actives have a fitted effect of over 40% in size)
CONDITIONS: ARP1 myeloma cells viability, CellTiter-Glo ATP, 48 h; series mostly up to 45.8 µM
Records with an inconclusive call do not appear. Calls of active or inactive are those of the source. Calls follow the shape of the dose curve; as a rule, active = well fitted cell-killing curve with a large enough effect; inconclusive = small, poorly fitted or top-dose-only effect, or effect the other way; inactive = no such curve, though single readings can be large or run the other way.
VALUE_TYPE: Potency

INSERT INTO assay_data (input_smiles, measurement) VALUES
  ('Cc1nc(NC(=O)N2CCC[C@@H]2C(N)=O)sc1-c1csc(C(C)(C)C)n1', '6.62 µM (active)'),
  ('NCc1c[nH]c(=S)n1[C@H]1CCc2c(F)cc(F)cc2C1', '18.7 µM (active)'),
  ('C[C@@H]1C[C@H]2[C@@H]3CCC4=CC(=O)C=C[C@]4(C)[C@@]3(F)[C@@H](O)C[C@]2(C)[C@@]1(O)C(=O)CO', '0.0235 µM (active)'),
  ('CN1CCC(COc2cnc(-c3cccc(Cn4nc(-c5cccc(C#N)c5)ccc4=O)c3)nc2)CC1', '20.9 µM (active)'),
  ('COc1cc2c(cc1Cc1cccc(Cl)c1F)c(=O)c(C(=O)O)cn2[C@H](CO)C(C)C', '16.6 µM (active)');

Sourced from PubChem BioAssay (NCATS)
